Values compiled from patent US9517989B2.

Reported Ki values for a set of compounds
- assayed_system: CB1 (Rattus norvegicus)
- Sequence (P20272 whole entry): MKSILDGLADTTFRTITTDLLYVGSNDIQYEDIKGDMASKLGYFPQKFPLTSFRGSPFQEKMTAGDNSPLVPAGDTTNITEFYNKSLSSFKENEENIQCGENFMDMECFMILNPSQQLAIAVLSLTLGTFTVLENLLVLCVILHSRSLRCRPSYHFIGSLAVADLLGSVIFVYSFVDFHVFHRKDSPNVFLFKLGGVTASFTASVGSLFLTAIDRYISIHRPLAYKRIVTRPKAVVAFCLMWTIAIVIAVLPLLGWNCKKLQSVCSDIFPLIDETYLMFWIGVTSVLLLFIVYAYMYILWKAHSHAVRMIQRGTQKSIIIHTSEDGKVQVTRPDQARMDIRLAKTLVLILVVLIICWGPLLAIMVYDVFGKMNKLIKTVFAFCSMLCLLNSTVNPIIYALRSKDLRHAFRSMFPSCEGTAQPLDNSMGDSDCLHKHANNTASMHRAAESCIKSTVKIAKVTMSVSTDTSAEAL
- protocol_summary: CB1 receptor binding affinity (Ki)
measured_quantity: Ki

> print(dat)
                                   compound  measured.quantity  reported.result
1  C=C(C)[C@@H]1CCC(=O)C[C@H]1c1c(O)cc(C(C)(C)CCCCCC)cc1O                 Ki        > 1000 nM
2  C=C(C)[C@H]1CCC(=O)C[C@@H]1c1c(O)cc(C(C)(C)CCCCCC)cc1O                 Ki      30 to 60 nM
3  C=C(C)[C@H]1CCC(COC(C)=O)=C[C@@H]1c1c(O)cc(C2(CCCCCBr)CCC2)cc1O                 Ki            50 nM
4  C=C(C)[C@H]1CCC(COC(C)=O)=C[C@@H]1c1c(O)cc(C2(/C=C\CCCC)CCOCC2)cc1O                 Ki           376 nM
5  C=C(C)[C@H]1CCC(CO)=C[C@@H]1c1c(O)cc(C2(CCCCCBr)CCC2)cc1O                 Ki            14 nM
6  C=C(C)C1CCC(O)CC1c1c(O)cc(C(C)(C)CCCCCC)cc1O (stereo not shown)                 Ki        > 1000 nM
7  C=C(C)[C@H]1CCC(COC(C)=O)=C[C@@H]1c1c(O)cc(C(C)(C)CCCCBr)cc1O                 Ki           191 nM
